systemName: T1, secretory phospholipase A2 (sPLA2) (Homo sapiens, UniProt P14555 P14555:21-144)
T1 sequence: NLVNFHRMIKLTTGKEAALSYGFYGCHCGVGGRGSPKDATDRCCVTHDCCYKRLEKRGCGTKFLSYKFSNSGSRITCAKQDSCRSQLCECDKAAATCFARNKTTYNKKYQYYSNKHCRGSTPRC
testDetails: filter; TBSC, 37 C
statedConditions: tags: supplied by Eli Lilly
pKd: −log10 of the molar value.
valueType: pKd

NS13 (ssRNA, 2'-NH2 all C and U) RNA: GGGAGGACGAUGCGGUGAGCUUAGGAUAGGAGCAACAAGUAGAGUAGAGUGAUAACUAGGGUGGCCAGACGACUCGCCCGA    7.82
NS49 (ssRNA, 2'-NH2 all C and U) RNA: GGGAGGACGAUGCGGAUAAGGAUAAGAUCGAACGAGAGUGAACAAAGUUAAAUACAGUCUGGGGGCAGACGACUCGCCCGA    7.59
NN19.11 (ssRNA, 2'-NH2 all C and U) RNA: GGGAAAAGAAGACCGGCCGGCGCCAUAGCCGAGAUCCGAGGUGUUGAACGAUAGACCAACCGAGAA    9.30
NN22 (ssRNA, 2'-NH2 all C and U) RNA: GGGAAAAGCGAAUCAUACACAAGACGGCGAGCAUGCGGCGAGUGGAGGAGGACUGAUGGAGGGCGAGACCGUGUGCUCCGCCAGAGACCAACCGAGAA    7.44
NS2 (ssRNA, 2'-NH2 all C and U) RNA: GGGAGGACGAUGCGGUAGUAACGGAUACUGAUCCGAGGUUAUAGUCACUAUAUCAUCCGCUGCGCCAGACGACUCGCCCGA    7.66

These measurements were taken from patent US5622828.
